Taken from ChEMBL document CHEMBL1961873.

biological target: Aurora kinase B (Homo sapiens) (UniProt Q96GD4); settings: at 0.1 µM;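 further: reported values are averaged percent inhibition of Aurora B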
Sequence (Q96GD4 whole entry): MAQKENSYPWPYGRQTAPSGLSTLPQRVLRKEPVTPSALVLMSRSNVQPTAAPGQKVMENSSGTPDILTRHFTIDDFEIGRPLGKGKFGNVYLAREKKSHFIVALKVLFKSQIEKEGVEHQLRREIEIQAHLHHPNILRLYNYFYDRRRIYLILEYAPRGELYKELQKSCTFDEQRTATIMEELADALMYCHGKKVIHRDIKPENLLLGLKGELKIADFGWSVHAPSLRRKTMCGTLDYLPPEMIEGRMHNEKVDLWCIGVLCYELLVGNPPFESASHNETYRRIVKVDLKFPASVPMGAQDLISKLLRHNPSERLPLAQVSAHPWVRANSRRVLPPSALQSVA
What inhibition was measured for each of the following?
Note: unit % is implicit; provide only the numeric part.

# inhibition lookup, item "CCN1CCC(CC(=O)Nc2n[nH]c3nc(-c4cccs4)c(Br)cc23)CC1"
-0.51

What does the record list as inhibition for "COc1ccc(-c2coc3ncnc(N)c23)cc1" ?
3.4

Query (molecule): "CNC(=O)c1cncc(/C=C/c2c(Cl)cccc2Cl)c1" ; field requested: inhibition
-2.93

Dear colleague, I am looking for the recorded inhibition of the following molecule: "CC(=O)Nc1cccc(C#Cc2cncnc2Nc2ccc(OCc3cccc(F)c3)c(Cl)c2)n1"
3.23

Value lookup for inhibition; key = "COc1cc(C=NNc2ncnc3c2cnn3-c2ccccc2)ccc1O"
11.5

Look up inhibition: "COc1ccc(COc2ccc(Cc3cnc(N)nc3N)cc2OC)cc1"
3.53

Look at this molecule and give its reported inhibition. "Nc1nc(-c2ccc3c(c2)C(=Cc2cc(Br)c(O)c(Br)c2)C(=O)N3)cs1"
1.57

GET /values?readout=inhibition&item= "CCn1c(-c2nonc2N)nc2c(C#CC(C)(C)O)nc(CN3CCCC3)cc21"
0.07

Give the measured inhibition of "CS(=O)(=O)CCNCc1ccc(-c2ccc3ncnc(Nc4ccc(OCc5ccccc5)c(Cl)c4)c3c2)o1" .
2.22

# get_value(readout='inhibition', item= "Cc1nn(C)c2cc(N(C)c3ccnc(Nc4cccc(S(N)(=O)=O)c4)n3)ccc12" )
7.86

// lookup inhibition for "NS(=O)(=O)c1cccc(-c2ccc3c(NC(=O)C4CC4)n[nH]c3c2)c1"
1.82

// lookup inhibition for "COc1cc2c(cc1Nc1nc(N3CCc4ccccc43)c3cc[nH]c3n1)N(C(=O)CN(C)C)CC2"
0.77

Which inhibition value is on record for "CC(C)=Cc1cccc2c1/C(=N/Nc1ccc(S(N)(=O)=O)cc1)C(=O)N2" ?
8.72

Bench note: what inhibition did "CCc1cccc(NC(=O)Nc2ccc(Oc3ccc4nc(NC(=O)OC)[nH]c4c3)cc2)c1" show?
7.89

Could you share which inhibition value was measured for "CCn1c(-c2nonc2N)nc2cnc(Oc3cccc(NC(=O)c4ccc(OCCN5CCOCC5)cc4)c3)cc21" ?
2.17

I would be grateful if you could share the reported inhibition for COc1ccc2cc(-c3c(-c4ccncc4)nc(-c4ccc([S+](C)[O-])cc4)n3C)ccc2c1 (stereo unspecified) .
4.15

Which inhibition is listed for "Cc1cccc(-c2n[nH]cc2-c2ccc3ncccc3n2)n1" ?
-1.18

Look at this molecule and give its reported inhibition. "CN(C)c1cc2c(Nc3ccc4nc(Cc5ccccc5)[nH]c4c3)ncnc2cn1"
6.09

Request the reported inhibition associated with "COc1cc2ncn(-c3cc(OCc4ccccc4Cl)c(C(N)=O)s3)c2cc1OC"
4.78

Record request: inhibition value, item "O=C1NC(=O)C(N2CCc3ccccc32)=C1c1ccc(Cl)cc1"
5.02

inhibition lookup needed for "c1cnn2ncc(-c3ccnc(Nc4ccc5c(c4)OCCO5)n3)c2c1" , thanks.
14.4

* * *

biological target: Platelet-derived growth factor receptor beta (Homo sapiens) (UniProt P09619); details: at 0.1 µM;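 further: reported value is the mean percent inhibition of the kinase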
Sequence (P09619 whole entry): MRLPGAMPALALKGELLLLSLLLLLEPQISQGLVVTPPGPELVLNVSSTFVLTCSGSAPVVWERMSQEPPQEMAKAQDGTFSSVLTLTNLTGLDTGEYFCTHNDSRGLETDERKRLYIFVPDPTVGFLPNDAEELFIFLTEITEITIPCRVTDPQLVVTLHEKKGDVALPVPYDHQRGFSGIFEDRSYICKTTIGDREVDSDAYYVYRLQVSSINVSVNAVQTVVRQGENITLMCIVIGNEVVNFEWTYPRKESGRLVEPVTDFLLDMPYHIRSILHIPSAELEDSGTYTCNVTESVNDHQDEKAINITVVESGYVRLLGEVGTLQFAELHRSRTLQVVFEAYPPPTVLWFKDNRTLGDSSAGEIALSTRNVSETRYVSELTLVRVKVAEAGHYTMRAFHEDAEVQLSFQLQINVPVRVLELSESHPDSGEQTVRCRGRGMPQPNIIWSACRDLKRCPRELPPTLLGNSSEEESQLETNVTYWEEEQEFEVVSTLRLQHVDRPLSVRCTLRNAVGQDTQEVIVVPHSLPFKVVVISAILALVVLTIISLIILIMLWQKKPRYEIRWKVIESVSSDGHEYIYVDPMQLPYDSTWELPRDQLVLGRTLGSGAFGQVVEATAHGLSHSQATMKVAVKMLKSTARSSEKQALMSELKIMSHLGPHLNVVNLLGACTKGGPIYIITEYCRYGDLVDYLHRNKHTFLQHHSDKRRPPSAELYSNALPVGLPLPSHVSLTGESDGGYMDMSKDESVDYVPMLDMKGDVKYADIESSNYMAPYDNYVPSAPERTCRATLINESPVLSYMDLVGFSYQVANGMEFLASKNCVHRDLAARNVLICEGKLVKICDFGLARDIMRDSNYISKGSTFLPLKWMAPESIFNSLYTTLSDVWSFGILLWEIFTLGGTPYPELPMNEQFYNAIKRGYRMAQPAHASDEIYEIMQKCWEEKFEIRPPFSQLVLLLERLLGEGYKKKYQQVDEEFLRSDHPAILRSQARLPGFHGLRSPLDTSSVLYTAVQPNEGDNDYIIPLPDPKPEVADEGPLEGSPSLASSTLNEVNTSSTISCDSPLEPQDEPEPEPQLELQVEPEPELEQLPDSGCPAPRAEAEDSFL
Record 1 whenever inhibition is at 3% or higher; record -1 when lower.

Is inhibition at least 3%? Consider "CCn1c(-c2nonc2N)nc2cnc(Oc3cccc(NC(=O)c4ccc(OCCN5CCOCC5)cc4)c3)cc21"
-1

Check if inhibition >= 3% (inclusive). Item: "COc1ccc(-c2ccncc2)cc1C(N)=O"
1

hey, is inhibition for this one >= 3%? "COc1cccc(-n2ncc3c(N/N=C/c4cccc(F)c4)ncnc32)c1"
1

In plain terms: is recorded inhibition at least 3% for "CS(=O)(=O)CCNCc1nc(-c2ccc3ncnc(Nc4ccc(F)c(Cl)c4)c3c2)cs1" ?
1

hey, is inhibition for this one >= 3%? "Cc1cccc(-c2n[nH]cc2-c2ccc3ncccc3n2)n1"
-1

Confirm if inhibition reported for the compound "CCn1c(-c2nonc2N)nc2c(N3CCCC3)nccc21" is 3% or above.
1
